- protocol.description: Inhibition of Hepatitis C virus genotype 2a NS3 protease
- Set-up: species or system Hepatitis C virus subtype 2a
measured.property: Ki (nM)
Report as a plain number; the unit nM is understood.

Field Ki (entry CCCC[C@H](NC(=O)[C@@H]1[C@@H]2[C@H](CN1C(=O)[C@@H](NC(=O)NC1(CS(=O)(=O)C(C)(C)C)CCCCC1)C(C)(C)C)C2(C)C)C(=O)C(=O)NC1CC1 [NARLAPREVIR] ) reads 3

---

- protocol.description: Cytotoxicity against human HuH7 cells by MTS assay
- Format: cell-based, Huh-7
measured.property: CC50

Field CC50 (entry `CCCC[C@H](NC(=O)[C@@H]1[C@@H]2[C@H](CN1C(=O)[C@@H](NC(=O)NC1(CS(=O)(=O)C(C)(C)C)CCCCC1)C(C)(C)C)C2(C)C)C(=O)C(=O)NC1CC1` ) reads > 25 µM

---

- protocol.description: Inhibition of Hepatitis C virus genotype 3a NS3 protease
- Design: species or system Hepatitis C virus subtype 3a
measured.property: Ki (nM)
Report as a plain number; the unit nM is understood.

Field Ki (entry CCCC[C@H](NC(=O)[C@@H]1[C@@H]2[C@H](CN1C(=O)[C@@H](NC(=O)NC1(CS(=O)(=O)C(C)(C)C)CCCCC1)C(C)(C)C)C2(C)C)C(=O)C(=O)NC1CC1 [NARLAPREVIR] ) reads 7
